target-under-test: Human recombinant enteropeptidase (Homo sapiens, UniProt P98073)
Construct: purchased BIO Vision Inc. 7529-50
Sequence (P98073 whole entry): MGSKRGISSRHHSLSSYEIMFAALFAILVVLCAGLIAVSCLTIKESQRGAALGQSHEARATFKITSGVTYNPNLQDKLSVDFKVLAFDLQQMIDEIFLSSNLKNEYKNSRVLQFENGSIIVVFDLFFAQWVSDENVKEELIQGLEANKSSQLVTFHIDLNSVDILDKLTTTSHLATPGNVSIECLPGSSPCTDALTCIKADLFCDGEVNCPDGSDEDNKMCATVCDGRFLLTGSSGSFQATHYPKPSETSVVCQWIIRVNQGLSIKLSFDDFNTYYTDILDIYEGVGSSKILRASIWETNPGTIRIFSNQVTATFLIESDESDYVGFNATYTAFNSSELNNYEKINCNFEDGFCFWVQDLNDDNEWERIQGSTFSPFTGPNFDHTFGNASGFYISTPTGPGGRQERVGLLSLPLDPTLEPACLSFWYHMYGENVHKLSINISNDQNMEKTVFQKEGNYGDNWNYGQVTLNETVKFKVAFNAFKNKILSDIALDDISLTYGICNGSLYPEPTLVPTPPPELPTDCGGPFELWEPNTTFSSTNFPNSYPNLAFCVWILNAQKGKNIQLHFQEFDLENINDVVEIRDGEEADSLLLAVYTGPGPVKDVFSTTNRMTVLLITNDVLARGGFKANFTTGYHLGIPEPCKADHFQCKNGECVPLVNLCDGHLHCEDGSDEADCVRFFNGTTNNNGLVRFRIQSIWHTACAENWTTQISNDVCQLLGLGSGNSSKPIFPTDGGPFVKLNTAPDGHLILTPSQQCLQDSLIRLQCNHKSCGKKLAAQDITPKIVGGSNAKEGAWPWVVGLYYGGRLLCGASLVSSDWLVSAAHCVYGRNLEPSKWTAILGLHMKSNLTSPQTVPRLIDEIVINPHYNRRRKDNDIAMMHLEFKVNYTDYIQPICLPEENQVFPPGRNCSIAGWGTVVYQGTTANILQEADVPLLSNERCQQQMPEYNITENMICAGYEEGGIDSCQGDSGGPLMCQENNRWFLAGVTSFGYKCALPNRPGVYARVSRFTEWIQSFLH
assay-protocol: Human enteropeptidase inhibition test
Format: biochemical
conditions: compound concentration 100 nM; 20 minutes after reaction start; read-out: Inhibition rate (enteropeptidase)
Structures can show the parent of a compound that is named as a salt.
Each entry below lists one item and its recorded inhibition at 0.1 µM value.

- compound: "N=C(N)Nc1ccc(C(=O)Oc2ccc(COC(=O)N(CCOCCOCCOCCOCCN(C(=O)OCc3ccc(OC(=O)c4ccc(NC(=N)N)cc4)cc3)C(CC(=O)O)C(=O)O)C(CC(=O)O)C(=O)O)cc2)cc1 (centres unmarked) [10-(b), trifluoroacetate]"
  inhibition at 0.1 µM: "≥ 50%"

# evaluate next
inhibition at 0.1 µM reading for Cl.N=C(N)Nc1ccc2c(c1)CCCOc1c(cccc1C(=O)N(Cc1cc(OCCOCCOc3cc(CN(C(=O)c4cccc5c4OCCCc4cc(NC(=N)N)ccc4C(=O)O5)[C@@H](CC(=O)O)C(=O)O)cc(C(=O)O)c3)cc(C(=O)O)c1)[C@@H](CC(=O)O)C(=O)O)OC2=O [29-(c), hydrochloride] : ≥ 50%

---

assay-protocol: in vivo
conditions: male, SD, rat, po, 10 mg/kg
Each entry below lists one item and its recorded AUC value.

- smi: "Cl.N=C(N)Nc1ccc2c(c1)CCCOc1c(cccc1C(=O)N(CCOCCOCCN(C(=O)c1cccc3c1OCCCc1cc(NC(=N)N)ccc1C(=O)O3)[C@@H](CC(=O)O)C(=O)O)[C@@H](CC(=O)O)C(=O)O)OC2=O"
  AUC: "≤ 100 ng·h/mL"

# evaluate next
AUC reading for Cl.N=C(N)Nc1ccc2c(c1)CCCOc1c(cccc1C(=O)N(CCOCCOCCN(C(=O)c1cccc3c1OCCCc1cc(NC(=N)N)ccc1C(=O)O3)[C@H](CC(=O)O)C(=O)O)[C@H](CC(=O)O)C(=O)O)OC2=O : ≤ 100 ng·h/mL

---

assay-protocol: Rat pharmacokinetic (PK) test (plasma concentration after oral administration)
conditions: male, SD, 100 mg/kg
readout: AUC

AUC reading for N=C(N)Nc1ccc(C(=O)Oc2ccc(CNS(=O)(=O)N(CCOCCN([C@@H](CC(=O)O)C(=O)O)S(=O)(=O)NCc3ccc(OC(=O)c4ccc(NC(=N)N)cc4)cc3)[C@@H](CC(=O)O)C(=O)O)cc2)cc1 [1-(b)] : ≤ 100 ng·h/mL
